- EXPERIMENT SUMMARY: Inhibition of Hepatitis C virus genotype 1b NS5B
- Parameters: species or system Hepatitis C virus subtype 1b
PROPERTY MEASURED: IC50 (nM)
All answers are understood in nM, so give the number only.

Req: Dear colleague, please send me the reported IC50 for COc1ccc2c(c1)[C@@H]1C[C@]1(C(=O)N1[C@@H]3CC[C@H]1CN(C)C3)Cn1c-2c(C2CCCCC2)c2ccc(C(=O)NS(=O)(=O)N(C)C)cc21 when you can.
Resp: 4

* * *

- EXPERIMENT SUMMARY: Half life in rat liver microsomes
- Format: ADME
PROPERTY MEASURED: half-life

Req: Dear colleague, please send me the reported half-life for COc1ccc2c(c1)[C@@H]1C[C@]1(C(=O)N1[C@@H]3CC[C@H]1CN(C)C3)Cn1c-2c(C2CCCCC2)c2ccc(C(=O)NS(=O)(=O)N(C)C)cc21 when you can.
Resp: > 3.33 h

Each recorded value in this set is attributed to ChEMBL document CHEMBL3124792.
